# experimental_target: CDK7 protein (Homo sapiens, UniProt P50613)
# Construct: To verify endogenous CDK7 protein degradation; endogenous in cells; host or cells: A2780 (ECACC 93112519)
# Sequence (P50613 whole entry): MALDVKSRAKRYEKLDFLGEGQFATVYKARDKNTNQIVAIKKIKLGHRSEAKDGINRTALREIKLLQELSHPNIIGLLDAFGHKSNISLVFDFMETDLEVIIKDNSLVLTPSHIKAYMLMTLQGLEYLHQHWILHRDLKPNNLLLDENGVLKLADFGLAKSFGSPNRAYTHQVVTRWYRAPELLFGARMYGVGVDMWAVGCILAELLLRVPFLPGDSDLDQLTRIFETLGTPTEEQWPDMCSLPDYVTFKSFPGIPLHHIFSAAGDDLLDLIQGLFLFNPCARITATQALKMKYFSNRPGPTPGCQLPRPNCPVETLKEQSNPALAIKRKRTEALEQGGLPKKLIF
# test_name: Western blot assay for CDK7 protein degradation in A2780 cells;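 note: A is DC50 up to 100 nM B is 100 to 1000 nM C is above 1000 nM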
# Assay type: cell-based
# setup_conditions: 24 hours, read-out: Compound concentration that caused 50% CDK7 protein degradation in A2780 cells (DC50)
endpoint_name: DC50

Value of DC50 reported for the molecule CC(C)c1cnn2c(NCc3ccccc3-c3nccc4cc(NCC5CCN(C6CCN(c7ccc8c(c7)C(=O)N(C7CCC(=O)NC7=O)C8=O)CC6)CC5)ccc34)nc(O[C@@H]3CCCNC3)nc12 (stereo partly drawn) [Compound 31] is ≤ 100 nM

Value of DC50 reported for the molecule CC(C)c1cnn2c(NCc3ccccc3-c3nccc4cc(NCCOCCOCCNC(=O)CNc5cccc6c5CN(C5CCC(=O)NC5=O)C6=O)ccc34)nc(O[C@@H]3CCCNC3)nc12 (stereo partly drawn) [Compound 14] is 100 to 1000 nM

Value of DC50 reported for the molecule CC(C)c1cnn2c(NCc3ccccc3-c3nccc4cc(N5CCN(CC6CCN(c7ccc8c(c7)C(=O)N(C7CCC(=O)NC7=O)C8=O)CC6)CC5)ccc34)nc(O[C@@H]3CCCNC3)nc12 (stereo partly drawn) [Compound 33] is ≤ 100 nM

Value of DC50 reported for the molecule CC(C)c1cnn2c(NCc3ccccc3-c3nccc4cc(N5CCC(CN6CCN(c7ccc8c(c7)C(=O)N(C7CCC(=O)NC7=O)C8=O)CC6)CC5)ccc34)nc(O[C@@H]3CCCNC3)nc12 (stereo partly drawn) [Compound 34] is ≤ 100 nM

Value of DC50 reported for the molecule Cc1ncsc1-c1ccc(CNC(=O)[C@@H]2C[C@@H](O)CN2C(=O)[C@@H](NC(=O)CCOCCOCCNc2ccc3c(-c4ccccc4CNc4nc(O[C@@H]5CCCNC5)nc5c(C(C)C)cnn45)nccc3c2)C(C)(C)C)cc1 [Compound 15] is ≤ 100 nM

Value of DC50 reported for the molecule Cc1ncsc1-c1ccc(CNC(=O)[C@@H]2C[C@@H](O)CN2C(=O)[C@@H](NC(=O)C2(F)CC2)C(C)(C)C)c(OCCOCCOCCOCCNc2ccc3c(-c4ccccc4CNc4nc(O[C@@H]5CCCNC5)nc5c(C(C)C)cnn45)nccc3c2)c1 [Compound 19] is ≤ 100 nM

Value of DC50 reported for the molecule Cc1cc([C@@H](C(=O)N2C[C@H](O)C[C@H]2C(=O)NCc2ccc(-c3scnc3C)cc2OCCOCCOCCNc2ccc3c(-c4ccccc4CNc4nc(O[C@@H]5CCCNC5)nc5c(C(C)C)cnn45)nccc3c2)C(C)C)on1 [Compound 26] is > 1000 nM

Value of DC50 reported for the molecule Cc1cc(C(C(=O)N2C[C@H](O)C[C@H]2C(=O)NCc2ccc(-c3scnc3C)cc2OCCOCCOCCNc2ccc3c(-c4ccccc4CNc4nc(O[C@@H]5CCCNC5)nc5c(C(C)C)cnn45)nccc3c2)C(C)C)on1 (stereo partly drawn) [Compound 24] is ≤ 100 nM

Value of DC50 reported for the molecule CC(C)c1cnn2c(NCc3ccccc3-c3nccc4cc(NCCOCCOCCNC(=O)CNc5ccc6c(c5)C(=O)N(C5CCC(=O)NC5=O)C6=O)ccc34)nc(O[C@@H]3CCCNC3)nc12 (stereo partly drawn) [Compound 10] is 100 to 1000 nM
